Tested system: HIV-1 Env of isolate 92UG005 (subtype D) (HIV-1)
Protocol text: cell-based or functional assay
Can you tell me log10(IC50 (neutralization)) for the items I'm about to list?
Give log10 of IC50 (neutralization), with IC50 (neutralization) taken in µg/mL.

Q: So what's the measured log10(IC50 (neutralization)) for this one? PGT-127 (antibody, V domains shown) VH: QPQLQESGPGLVEASETLSLTCTVSGDSTGRCNYFWGWVRQPPGKGLEWIGSLSHCRSYYNTDWTYHNPSLKSRLTISLDTPKNQVFLRLTSVTAADTATYYCARFGGEVLVYRDWPKPAWVDLWGRGTLVVTVS VL: QSALTQPPSASGSPGQSITISCTGTSNNFVSWYQQYPGKAPKLVIYEVNKRPSGVPDRFSGSKSGSTASLTVSGLQADDEGVYYCSSLVGNWDVIFGGGTKLTVL
A: 0.05

Q: So what's the measured log10(IC50 (neutralization)) for this one? PGT-123 (antibody, V domains shown) VH: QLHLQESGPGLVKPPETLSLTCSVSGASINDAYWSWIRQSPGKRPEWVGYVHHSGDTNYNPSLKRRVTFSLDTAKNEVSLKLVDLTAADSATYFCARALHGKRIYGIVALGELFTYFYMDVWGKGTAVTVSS VL: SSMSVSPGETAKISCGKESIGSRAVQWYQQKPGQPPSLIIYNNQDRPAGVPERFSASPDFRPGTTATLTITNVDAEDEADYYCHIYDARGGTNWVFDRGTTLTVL
A: 0.99

Q: So what's the measured log10(IC50 (neutralization)) for this one? PGT-126 (antibody, V domains shown) VH: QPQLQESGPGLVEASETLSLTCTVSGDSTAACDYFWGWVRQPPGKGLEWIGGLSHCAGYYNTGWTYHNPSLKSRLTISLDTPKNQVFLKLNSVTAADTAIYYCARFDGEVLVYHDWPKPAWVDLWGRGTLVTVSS VL: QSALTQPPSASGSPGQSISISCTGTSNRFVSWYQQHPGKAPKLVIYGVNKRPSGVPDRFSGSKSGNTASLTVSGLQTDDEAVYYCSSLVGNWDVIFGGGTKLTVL
A: -1.43

Q: So what's the measured log10(IC50 (neutralization)) for this one? PGT-130 (antibody, V domains shown) VH: QVQLQESGPGLVKPAETLSLTCSVSGESINTGHYYWGWVRQVPGKGLEWIGHIHYTTAVLHNPSLKSRLTIKIYTLRNQITLRLSNVTAADTAVYHCVRSGGDILYYYEWQKPHWFSPWGPGIHVTVSS VL: QSALTQPPSASGSLGQSVTISCNGTSSDIGGWNFVSWYQQFPGRAPRLIIFEVNKRPSGVPGRFSGSKSGNSASLTVSGLQSDDEGQYFCSSLFGRWDVVFGGGTKLTVL
A: -0.02

Q: So what's the measured log10(IC50 (neutralization)) for this one? PGT-128 (antibody, V domains shown) VH: QPQLQESGPTLVEASETLSLTCAVSGDSTAACNSFWGWVRQPPGKGLEWVGSLSHCASYWNRGWTYHNPSLKSRLTLALDTPKNLVFLKLNSVTAADTATYYCARFGGEVLRYTDWPKPAWVDLWGRGTLVTVSS VL: QSALTQPPSASGSPGQSITISCTGTSNNFVSWYQQHAGKAPKLVIYDVNKRPSGVPDRFSGSKSGNTASLTVSGLQTDDEAVYYCGSLVGNWDVIFGGGTKLTVL
A: -1.74

Q: So what's the measured log10(IC50 (neutralization)) for this one? PGT-131 (antibody, V domains shown) VH: QVQLQESGPGLVKPSETLSLTCTVSGDSINTGHHYWGWVRQVPGKGPEWIAHIHYNTAVLHNPALKSRVTISIFTLKNLITLSLSNVTAADTAVYFCVRSGGDILYYIEWQKPHWFYPWGPGILVTVSS VL: QSALTQPPSASGSLGQSLTISCSGTGSDIGSWNFVSWYQQFPGRAPNLIIFEVNRRRSGVPDRFSGSKSGNTASLTVSGLRSEDEAEYFCSSLSGRWDIVFGGGTKVTVL
A: -0.07
